Origin of values: the supplement of paper PMC8975748

# Test system: Saccharomyces cerevisiae BY4741 SeMeCo community
# testDescription: z-score of subpopulation abundance vs DMSO median, subpopulation auxotrophic for HUM; higher = larger share of this subpopulation than in DMSO controls
# assayConditions: 10 µM; 24 h; SM minimal medium; subpopulation (auxotrophy): HUM
Structures can show the parent of a compound that is named as a salt.
measurementName: z-score of subpopulation abundance

- Cc1c(C)c2c(c(C)c1O)CCC(C)(CCCC(C)CCCC(C)CCCC(C)C)O2 (stereo not given): -0.31

Go through the list and state z-score of subpopulation abundance for each entry.
1. CCN(CC)C(=O)[C@@]1(c2ccccc2)C[C@H]1CN [Levomilnacipran Hydrochloride]
2. CN[C@@H]1[C@H](O[C@H]2[C@H](O[C@H]3[C@H](O)[C@@H](O)[C@H](NC(=N)N)[C@@H](O)[C@@H]3NC(=N)N)O[C@@H](C)[C@]2(O)CO)O[C@@H](CO)[C@H](O)[C@H]1O [Dihydrostreptomycin sulfate]
3. COc1c(N2C[C@@H]3CCCN[C@@H]3C2)c(F)cc2c(=O)c(C(=O)O)cn(C3CC3)c12 [Moxifloxacin HCl]
4. CN(C)C(=O)COC(=O)Cc1ccc(OC(=O)c2ccc(NC(=N)N)cc2)cc1 [Camostat Mesilate]

Result ::
1. -0.17
2. -0.82
3. 0.22
4. -0.25

Go through the list and state z-score of subpopulation abundance for each entry.
1. CN(CCN1CCC(OC(=O)Nc2ccccc2-c2ccccc2)CC1)C(=O)c1ccc(CN2CCC(C(N)=O)CC2)cc1
2. O=C(c1ccccc1)c1ccc2n1CCC2C(=O)O (stereo not given) [Ketorolac]
3. CCN1CCN(c2cc3c(cc2F)c(=O)c(C(=O)O)cn3C2CC2)CC1
4. CCC[C@@H]1C[C@@H](C(=O)N[C@@H]([C@H]2O[C@H](SC)[C@H](O)[C@@H](O)[C@H]2O)[C@@H](C)O)N(C)C1 [Lincomycin HCl]
5. CN[C@H](CC(C)C)C(=O)N[C@H]1C(=O)N[C@@H](CC(N)=O)C(=O)N[C@H]2C(=O)N[C@H]3C(=O)N[C@H](C(=O)N[C@H](C(=O)O)c4cc(O)cc(O)c4-c4cc3ccc4O)[C@H](O)c3ccc(c(Cl)c3)Oc3cc2cc(c3O[C@@H]2O[C@H](CO)[C@@H](O)[C@H](O)[C@H]2O[C@H]2C[C@](C)(N)[C@H](O)[C@H](C)O2)Oc2ccc(cc2Cl)[C@H]1O [Vancomycin HCl]
6. O=C(O)c1cccnc1Nc1cccc(C(F)(F)F)c1
7. Cc1cccc(C)c1NC(=O)C1CCCCN1C (stereo not given) [Mepivacaine HCl]

Result ::
[0.24, -0.93, 0.02, 0.3, 0.51, -0.49, 0.36]

====

# System: Saccharomyces cerevisiae BY4741 SeMeCo community
# testDescription: z-score of subpopulation abundance vs DMSO median, subpopulation auxotrophic for LM; higher = larger share of this subpopulation than in DMSO controls
# assayConditions: 10 µM; 24 h; SM minimal medium; subpopulation (auxotrophy): LM
Kindly supply the reported z-score of subpopulation abundance values for the records listed here.
Numbers only.

The following compounds have reported results that may help.
- O=c1c(-c2ccc(O)cc2)coc2c([C@@H]3O[C@H](CO)[C@@H](O)[C@H](O)[C@H]3O)c(O)ccc12 [Puerarin]: -0.04
- C#C[C@]1(O)CC[C@H]2[C@@H]3CCC4=CCCC[C@@H]4[C@H]3C(=C)C[C@@]21CC [Desogestrel]: -0.94

// next item, z-score of subpopulation abundance requested
Query :: # query: z-score of subpopulation abundance of entry C[C@@H](c1ncncc1F)[C@](O)(Cn1cncn1)c1ccc(F)cc1F [Voriconazole]
Result :: 1.93
